Assay: viability gain of MRP-1-high H69AR cells under doxorubicin, pilot screen, MRP-1 activator project, CellTiter-Glo, duplicate (AID 807);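 also: compound pretreatment 18-22 h then 72 h combined with doxorubicin; 0% = doxorubicin alone and 100% = vehicle without doxorubicin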
Conditions: H69AR viability with doxorubicin, CellTiter-Glo luminescence; at 10 µM; hits give high values
Kindly supply the reported viability increase values for the records listed here.
Answer in %, number only, no unit symbol.

q: Respond only with viability increase recorded for CC(CCc1ccccc1)NC(=O)C1CCN(c2nnc(-n3cccc3)s2)CC1 (stereo unspecified)
a: -0.45

q: Please report viability increase for the following compound: O=c1c2ccccc2nnn1CSc1nnc(-c2ccco2)o1
a: -4.5

q: Respond only with viability increase recorded for COc1ccccc1CNC(=O)Cn1cc2c(n1)CCCC2
a: 13.7

q: In one line, give reported viability increase of the entry CCc1nnc(NC(=O)c2cccs2)s1 .
a: 2.17

q: // Input: CC(=O)Oc1cc2c(C(=O)NCc3ccncc3)c(C)oc2c2ccccc12 . Output its viability increase only.
a: -3.14

q: Please indicate viability increase recorded for CCOC(=O)C1CCN(C(=O)COc2cc(C)c(Br)c(C)c2)CC1
a: -3.43
